# pIC50 listing for each entry below
Molecular target: GABA-B receptor (Homo sapiens, UniProt O75899+Q9UBS5)
Sequence (Q9UBS5 whole entry): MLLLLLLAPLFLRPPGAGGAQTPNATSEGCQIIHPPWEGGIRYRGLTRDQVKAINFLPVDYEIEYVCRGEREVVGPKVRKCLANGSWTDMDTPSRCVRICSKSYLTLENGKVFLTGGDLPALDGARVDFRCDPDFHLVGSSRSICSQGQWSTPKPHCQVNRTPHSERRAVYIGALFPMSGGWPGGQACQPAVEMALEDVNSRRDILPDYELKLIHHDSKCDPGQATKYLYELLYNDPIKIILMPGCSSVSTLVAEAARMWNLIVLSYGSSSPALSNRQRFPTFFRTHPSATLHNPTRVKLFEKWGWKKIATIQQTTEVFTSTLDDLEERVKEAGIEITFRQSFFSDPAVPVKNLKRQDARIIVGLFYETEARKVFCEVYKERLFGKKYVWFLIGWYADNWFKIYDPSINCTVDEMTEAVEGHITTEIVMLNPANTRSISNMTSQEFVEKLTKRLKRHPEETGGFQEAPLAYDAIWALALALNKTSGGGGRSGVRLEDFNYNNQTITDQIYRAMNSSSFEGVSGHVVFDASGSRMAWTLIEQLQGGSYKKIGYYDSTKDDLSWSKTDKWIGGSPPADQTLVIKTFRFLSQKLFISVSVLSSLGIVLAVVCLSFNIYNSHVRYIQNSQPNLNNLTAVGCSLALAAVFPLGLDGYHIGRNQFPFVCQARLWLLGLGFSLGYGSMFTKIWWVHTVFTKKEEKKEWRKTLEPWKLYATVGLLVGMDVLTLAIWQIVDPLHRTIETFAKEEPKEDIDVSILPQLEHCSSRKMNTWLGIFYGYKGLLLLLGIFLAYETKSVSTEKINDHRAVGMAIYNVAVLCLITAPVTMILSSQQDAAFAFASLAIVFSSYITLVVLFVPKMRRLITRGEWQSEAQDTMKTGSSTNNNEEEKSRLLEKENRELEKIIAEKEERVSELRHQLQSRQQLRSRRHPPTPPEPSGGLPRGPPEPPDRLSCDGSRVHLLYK
Sequence (O75899 whole entry): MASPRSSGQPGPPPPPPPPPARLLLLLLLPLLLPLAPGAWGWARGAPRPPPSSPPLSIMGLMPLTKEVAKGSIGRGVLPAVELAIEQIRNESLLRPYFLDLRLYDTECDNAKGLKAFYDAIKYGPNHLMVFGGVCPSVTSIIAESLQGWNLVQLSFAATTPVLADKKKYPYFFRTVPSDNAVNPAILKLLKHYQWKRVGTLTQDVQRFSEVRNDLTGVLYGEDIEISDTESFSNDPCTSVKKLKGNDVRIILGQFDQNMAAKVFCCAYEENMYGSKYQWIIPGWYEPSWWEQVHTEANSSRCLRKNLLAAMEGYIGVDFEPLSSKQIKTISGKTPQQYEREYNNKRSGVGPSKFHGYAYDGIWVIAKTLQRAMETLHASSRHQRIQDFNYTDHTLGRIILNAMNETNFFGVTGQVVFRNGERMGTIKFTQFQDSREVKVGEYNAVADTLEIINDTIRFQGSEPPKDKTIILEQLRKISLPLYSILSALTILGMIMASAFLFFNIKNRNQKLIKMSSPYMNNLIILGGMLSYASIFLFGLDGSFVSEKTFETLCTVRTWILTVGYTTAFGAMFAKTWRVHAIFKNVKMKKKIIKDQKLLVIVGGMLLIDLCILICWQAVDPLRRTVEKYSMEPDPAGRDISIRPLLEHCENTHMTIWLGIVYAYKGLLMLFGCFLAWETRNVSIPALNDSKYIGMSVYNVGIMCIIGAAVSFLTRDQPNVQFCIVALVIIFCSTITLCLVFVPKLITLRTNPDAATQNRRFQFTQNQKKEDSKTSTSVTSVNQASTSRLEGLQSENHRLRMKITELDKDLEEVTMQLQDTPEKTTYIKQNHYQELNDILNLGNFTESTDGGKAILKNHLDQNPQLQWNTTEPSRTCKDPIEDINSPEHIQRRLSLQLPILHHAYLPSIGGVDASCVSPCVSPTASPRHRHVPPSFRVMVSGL
Assay: Inhibition of [3H]CGP-27492 binding to cat Gamma-aminobutyric acid type B receptor
Assay type: protein-complex assay, Felis catus
Conditions: target entry is the homologue from another species
pIC50: −log10 of the molar value.
quantityName: pIC50

[
  {
    "molecule": "CC(CCN)P(C)(=O)O (configuration not stated)",
    "quantityName": "pIC50",
    "resultNumber": 6.78
  },
  {
    "molecule": "CP(=O)(O)CC(O)CN (configuration not stated)",
    "quantityName": "pIC50",
    "resultNumber": 7.54
  }
]
